# key: entry, value: z-score
# measurement.protocol: inhibitors of hydroxyurea-induced Chk1 phosphorylation, primary screen, imaging, HeLa, phospho-Chk1 antibody, percent positive cells (AID 1186)
# condition.label: hydroxyurea-induced phospho-Chk1 immunofluorescence imaging, higher = more signal
Calls of active or inactive are those of the source. The rule behind the calls is not given here.

Would you please look over these solved cases?
CCOC(=O)C[C@H]1[C@H](OC(=O)Cc2ccc3c(c2)OCO3)[C@@H](NC(=O)c2ccccc2)c2cc(OCCCO)ccc2N1C(=O)Cc1ccc(OC)cc1 ... -1.29 (inactive)
C=CCOC(=O)[C@@H]1[C@H]2C(=O)O[C@H](c3ccccc3)[C@H](c3ccccc3)N2[C@H](c2ccc(OCCOC(=O)[C@H]3C[C@H]4C(=O)NCC(=O)N4[C@H]3c3ccc(O)cc3)cc2)[C@@]12C(=O)Nc1ccc(I)cc12 ... -0.804 (inactive)
O=C(NCC(F)(F)F)[C@@H]1c2ccccc2C(=O)N(CC23CC4CC(CC(C4)C2)C3)[C@H]1c1ccc(CO)cc1 ... -0.254 (inactive)
COc1ccc(CCNC(=O)[C@@H]2c3ccccc3C(=O)N(CC34CC5CC(CC(C5)C3)C4)[C@H]2c2ccc(CO)cc2)cc1 ... -0.0198 (inactive)
COc1ccc([Si](C)(C)[C@H]2[C@H](CC(=O)N3Cc4ccccc4C[C@H]3CO)O[C@@]3(C(=O)N(Cc4cccc(N5C(=O)c6cccc7cccc5c67)c4)c4ccccc43)[C@@H]2C)cc1 ... -0.887 (inactive)

// Input: COc1ccccc1CN1C(=O)c2ccccc2[C@@H](C(=O)NCCCN(C)C)[C@@H]1c1ccc(CO)cc1 . Output its z-score only.
-0.343 (inactive)

// Input: O=C1OCCC/C=C\[C@H]2OC34C=CCN(Cc5ccccc5)C(=O)[C@H]3N(CCCCCO)C(=O)[C@@H]4C12 (stereo not given in full) . Output its z-score only.
-0.312 (inactive)

// Input: C=CC[C@@]1(C(=O)N(C)C)N=C(c2ccc(OCCCO)cc2)O[C@@H]1c1ccccc1 . Output its z-score only.
0.343 (inactive)
